# methodNotes: Solubility of bendamustine HCl in 0.9% saline with non-aqueous solubilizer (Example 1)
# Format: physicochemical
# runConditions: 22.5 °C, aqueous with cosolvent or surfactant or cyclodextrin, thermodynamic from solid, Room temperature; API Source A; 80.0% Normal Saline, 20.0% Non-aqueous Solubilizer (90:10 PEG 400/PG); read-out: Solubility of bendamustine HCl
# Protocol: Essentially, an excess of bendamustine HCl was added to solvents comprising of various volume percent of the non-aqueous solubilizer in 0.9% saline, and allowed to equilibrate with shaking for 30 minutes at room temperature, or for 24 hours at refrigerated temperature. […]
Counter-ions that a name gives are not always drawn.
measurementName: solubility at 30 min (µg/mL)

{"columns": ["compound", "endpointResult"],
 "data": [
  ["Cn1c(CCCC(=O)O)nc2cc(N(CCCl)CCCl)ccc21 [bendamustine HCl]", 8640]
]}

* * *

# methodNotes: Solubility of bendamustine HCl in 0.9% saline with non-aqueous solubilizer (Example 1)
# Format: physicochemical
# runConditions: 5 °C, aqueous with cosolvent or surfactant or cyclodextrin, thermodynamic from solid, 5° C.; API Source A; 80.0% Normal Saline, 20.0% Non-aqueous Solubilizer (90:10 PEG 400/PG); read-out: Solubility of bendamustine HCl
# Method: Essentially, an excess of bendamustine HCl was added to solvents comprising of various volume percent of the non-aqueous solubilizer in 0.9% saline, and allowed to equilibrate with shaking for 30 minutes at room temperature, or for 24 hours at refrigerated temperature. […]
Structures can show the parent of a compound that is named as a salt.

{"columns": ["compound", "resultUnits", "solubility at 24 h"],
 "data": [
  ["Cn1c(CCCC(=O)O)nc2cc(N(CCCl)CCCl)ccc21 [bendamustine HCl]", "µg/mL", 3820]
]}

* * *

# methodNotes: Solubility of bendamustine HCl in 0.9% saline with non-aqueous solubilizer (Example 1)
# Type: physicochemical
# runConditions: 0.9% saline, 22.5 °C, saline or isotonic, thermodynamic from solid, Room temperature; API Source A; 100.0% Normal Saline, 0.0% Non-aqueous Solubilizer (90:10 PEG 400/PG); read-out: Solubility of bendamustine HCl
# Protocol: Essentially, an excess of bendamustine HCl was added to solvents comprising of various volume percent of the non-aqueous solubilizer in 0.9% saline, and allowed to equilibrate with shaking for 30 minutes at room temperature, or for 24 hours at refrigerated temperature. […]
Where a name gives a salt, the structure may show the parent alone.

{"columns": ["compound", "solubility at 30 min (µg/mL)"],
 "data": [
  ["Cn1c(CCCC(=O)O)nc2cc(N(CCCl)CCCl)ccc21 [bendamustine HCl]", 3460]
]}

* * *

# methodNotes: Solubility of bendamustine HCl in 0.9% saline with non-aqueous solubilizer (Example 1)
# Assay type: physicochemical
# runConditions: 0.9% saline with 5 mg/ml monothioglycerol, 22.5 °C, saline or isotonic, thermodynamic from solid; Room temperature; API Source B, solvent also contained 5 mg/ml monothioglycerol; 100.0% Normal Saline, 0.0% Non-aqueous Solubilizer; read-out: Solubility of bendamustine HCl
Structures can show the parent of a compound that is named as a salt.
measurementName: solubility at 30 min

{"columns": ["compound", "endpointResult"],
 "data": [
  ["Cn1c(CCCC(=O)O)nc2cc(N(CCCl)CCCl)ccc21 [bendamustine HCl]", "~3300 µg/mL"]
]}

* * *

# methodNotes: Solubility of bendamustine HCl in 0.9% saline with non-aqueous solubilizer (Example 1)
# Type: physicochemical
# runConditions: 22.5 °C, saline or isotonic, thermodynamic from solid, Room temperature; API Source A; 97.5% Normal Saline, 2.5% Non-aqueous Solubilizer (90:10 PEG 400/PG); read-out: Solubility of bendamustine HCl
Structures can show the parent of a compound that is named as a salt.

{"columns": ["compound", "resultUnits", "solubility at 30 min"],
 "data": [
  ["Cn1c(CCCC(=O)O)nc2cc(N(CCCl)CCCl)ccc21 [bendamustine HCl]", "µg/mL", 3990]
]}

* * *

# methodNotes: Solubility of bendamustine HCl in 0.9% saline with non-aqueous solubilizer (Example 1)
# Format: physicochemical
# runConditions: 22.5 °C, aqueous with cosolvent or surfactant or cyclodextrin, thermodynamic from solid, Room temperature; API Source A; 95.0% Normal Saline, 5.0% Non-aqueous Solubilizer (90:10 PEG 400/PG); read-out: Solubility of bendamustine HCl
# Protocol: Essentially, an excess of bendamustine HCl was added to solvents comprising of various volume percent of the non-aqueous solubilizer in 0.9% saline, and allowed to equilibrate with shaking for 30 minutes at room temperature, or for 24 hours at refrigerated temperature. […]
Structures can show the parent of a compound that is named as a salt.
measurementName: solubility at 30 min (µg/mL)

{"columns": ["compound", "measurementName", "endpointResult"],
 "data": [
  ["Cn1c(CCCC(=O)O)nc2cc(N(CCCl)CCCl)ccc21 [bendamustine HCl]", "solubility at 30 min", 4430]
]}

* * *

# methodNotes: Solubility of bendamustine HCl in 0.9% saline with non-aqueous solubilizer (Example 1)
# Type: physicochemical
# runConditions: 22.5 °C, saline or isotonic, thermodynamic from solid; Room temperature; API Source B, solvent also contained 5 mg/ml monothioglycerol; 97.5% Normal Saline, 2.5% Non-aqueous Solubilizer; read-out: Solubility of bendamustine HCl
Structures can show the parent of a compound that is named as a salt.
measurementName: solubility at 30 min (µg/mL)

{"columns": ["compound", "resultUnits", "endpointResult"],
 "data": [
  ["Cn1c(CCCC(=O)O)nc2cc(N(CCCl)CCCl)ccc21 [bendamustine HCl]", "µg/mL", 3890]
]}

* * *

# methodNotes: Solubility of bendamustine HCl in 0.9% saline with non-aqueous solubilizer (Example 1)
# Type: physicochemical
# runConditions: 0.9% saline, 5 °C, saline or isotonic, thermodynamic from solid, 5° C.; API Source A; 100.0% Normal Saline, 0.0% Non-aqueous Solubilizer (90:10 PEG 400/PG); read-out: Solubility of bendamustine HCl
Structures can show the parent of a compound that is named as a salt.
measurementName: solubility at 24 h (mg/mL)

{"columns": ["molecule", "endpointResult"],
 "data": [
  ["Cn1c(CCCC(=O)O)nc2cc(N(CCCl)CCCl)ccc21 [bendamustine HCl]", 1.18]
]}

* * *

# methodNotes: Solubility of bendamustine HCl in 0.9% saline with non-aqueous solubilizer (Example 1)
# Type: physicochemical
# runConditions: 22.5 °C, aqueous with cosolvent or surfactant or cyclodextrin, thermodynamic from solid, Room temperature; API Source A; 70.0% Normal Saline, 30.0% Non-aqueous Solubilizer (90:10 PEG 400/PG); read-out: Solubility of bendamustine HCl
Structures can show the parent of a compound that is named as a salt.
measurementName: solubility at 30 min (mg/mL)

{"columns": ["molecule", "endpointResult"],
 "data": [
  ["Cn1c(CCCC(=O)O)nc2cc(N(CCCl)CCCl)ccc21 [bendamustine HCl]", 12]
]}

* * *

# methodNotes: Solubility of bendamustine HCl in 0.9% saline with non-aqueous solubilizer (Example 1)
# Assay type: physicochemical
# runConditions: 22.5 °C, aqueous with cosolvent or surfactant or cyclodextrin, thermodynamic from solid, room temperature; 16.1% of the non-aqueous component in the final 50 ml admixture; read-out: room temperature solubility of bendamustine HCl in final admixture
Counter-ions that a name gives are not always drawn.
measurementName: solubility at 30 min

{"columns": ["compound", "measurementName", "endpointResult"],
 "data": [
  ["Cn1c(CCCC(=O)O)nc2cc(N(CCCl)CCCl)ccc21 [bendamustine HCl]", "solubility at 30 min", "~6500 µg/mL"]
]}

* * *

# methodNotes: Solubility of bendamustine HCl in 0.9% saline with non-aqueous solubilizer (Example 1)
# Type: physicochemical
# runConditions: 22.5 °C, aqueous with cosolvent or surfactant or cyclodextrin, thermodynamic from solid, Room temperature; API Source A; 85.0% Normal Saline, […] Non-aqueous Solubilizer (90:10 PEG 400/PG); read-out: Solubility of bendamustine HCl
Structures can show the parent of a compound that is named as a salt.

{"columns": ["molecule", "resultUnits", "solubility at 30 min"],
 "data": [
  ["Cn1c(CCCC(=O)O)nc2cc(N(CCCl)CCCl)ccc21 [bendamustine HCl]", "µg/mL", 7010]
]}

* * *

# methodNotes: Solubility of bendamustine HCl in 0.9% saline with non-aqueous solubilizer (Example 1)
# Format: physicochemical
# runConditions: 5 °C, aqueous with cosolvent or surfactant or cyclodextrin, thermodynamic from solid, 5° C.; API Source A; 90.0% Normal Saline, 10.0% Non-aqueous Solubilizer (90:10 PEG 400/PG); read-out: Solubility of bendamustine HCl
Where a name gives a salt, the structure may show the parent alone.
measurementName: solubility at 24 h (mg/mL)

{"columns": ["compound", "resultUnits", "endpointResult"],
 "data": [
  ["Cn1c(CCCC(=O)O)nc2cc(N(CCCl)CCCl)ccc21 [bendamustine HCl]", "mg/mL", 2.43]
]}
